Biological target: PDE5A1 (Homo sapiens)
Assay: Selective inhibitory activity assay, PDE5A1
Assay type: biochemical
Details: 1 μM; read-out: Inhibition rate (%) of PDE5A1
metric: inhibition at 1 µM (%)

[[record]]
molecule = "CCOc1cc([C@@H](CS(C)(=O)=O)N2C(=O)c3cccc(NC(C)=O)c3C2=O)ccc1OC [Example 0, Apremilast, reference compound]"
unit_of_measure = "%"
reading = 3.97

[[record]]
molecule = "CCCCc1ccc(NC(=O)CCCCl)c2c1C(=O)N([C@H](CS(C)(=O)=O)c1ccc(OC)c(OCC)c1)C2=O"
unit_of_measure = "%"
reading = 0

[[record]]
molecule = "CCCCCc1ccc(NC(=O)CF)c2c1C(=O)N([C@H](CS(C)(=O)=O)c1ccc(OC)c(OCC)c1)C2=O"
unit_of_measure = "%"
reading = 0

[[record]]
molecule = "CCCCCc1ccc(NC(=O)CCCl)c2c1C(=O)N([C@H](CS(C)(=O)=O)c1ccc(OC)c(OCC)c1)C2=O"
unit_of_measure = "%"
reading = 0

[[record]]
molecule = "CCCCCc1ccc(NC(=O)CC)c2c1C(=O)N([C@H](CS(C)(=O)=O)c1ccc(OC)c(OCC)c1)C2=O"
unit_of_measure = "%"
reading = 14.1

[[record]]
molecule = "CCCC#Cc1ccc(NC(C)=O)c2c1C(=O)N([C@H](CS(C)(=O)=O)c1ccc(OC)c(OCC)c1)C2=O"
unit_of_measure = "%"
reading = 0

[[record]]
molecule = "CCCCCc1ccc(NC(=O)CCCCl)c2c1C(=O)N([C@H](CS(C)(=O)=O)c1ccc(OC)c(OCC)c1)C2=O"
unit_of_measure = "%"
reading = 0.66

[[record]]
molecule = "C=CC(=O)Nc1ccc(CCCCC)c2c1C(=O)N([C@H](CS(C)(=O)=O)c1ccc(OC)c(OCC)c1)C2=O"
unit_of_measure = "%"
reading = 5.72

[[record]]
molecule = "CCCCCc1ccc(NC(C)=O)c2c1C(=O)N([C@H](CS(C)(=O)=O)c1ccc(OC)c(OCC)c1)C2=O"
unit_of_measure = "%"
reading = 1.99

[[record]]
molecule = "CCCCCc1ccc(NC(=O)CCl)c2c1C(=O)N([C@H](CS(C)(=O)=O)c1ccc(OC)c(OCC)c1)C2=O"
unit_of_measure = "%"
reading = 0


----------
Biological target: PDE10A1 (Homo sapiens, UniProt Q9Y233)
Sequence (Q9Y233 1-779 isoform Q9Y233-1, species assumed): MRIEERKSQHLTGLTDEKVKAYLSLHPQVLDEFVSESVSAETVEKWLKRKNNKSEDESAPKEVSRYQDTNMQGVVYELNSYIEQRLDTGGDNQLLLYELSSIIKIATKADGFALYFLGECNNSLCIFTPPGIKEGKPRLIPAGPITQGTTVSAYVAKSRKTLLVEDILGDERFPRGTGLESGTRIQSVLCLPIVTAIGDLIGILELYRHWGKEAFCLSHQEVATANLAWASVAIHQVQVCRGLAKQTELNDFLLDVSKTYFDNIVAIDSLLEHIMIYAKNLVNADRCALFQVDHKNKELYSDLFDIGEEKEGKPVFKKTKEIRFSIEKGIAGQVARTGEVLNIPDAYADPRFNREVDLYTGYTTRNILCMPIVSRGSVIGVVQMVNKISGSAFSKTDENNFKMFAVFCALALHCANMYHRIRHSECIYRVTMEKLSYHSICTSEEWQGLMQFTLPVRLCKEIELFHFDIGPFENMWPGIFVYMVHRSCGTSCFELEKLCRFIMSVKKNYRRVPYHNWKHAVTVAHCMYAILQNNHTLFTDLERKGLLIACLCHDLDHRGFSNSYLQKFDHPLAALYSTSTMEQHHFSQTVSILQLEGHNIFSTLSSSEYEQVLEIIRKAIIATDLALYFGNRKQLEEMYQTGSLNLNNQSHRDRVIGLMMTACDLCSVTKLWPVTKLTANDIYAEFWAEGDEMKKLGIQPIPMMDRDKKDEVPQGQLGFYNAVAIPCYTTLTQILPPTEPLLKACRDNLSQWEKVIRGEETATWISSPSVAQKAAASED
Experiment: Selective inhibitory activity assay, PDE10A1
Type: biochemical
Settings: 1 μM; read-out: Inhibition rate (%) of PDE10A1
The entries below come with measured inhibition at 1 µM values attached.
metric: inhibition at 1 µM (%)

[[record]]
smiles_string = "CCCCCc1ccc(NC(=O)CCCCl)c2c1C(=O)N([C@H](CS(C)(=O)=O)c1ccc(OC)c(OCC)c1)C2=O"
unit_of_measure = "%"
reading = 2.21

[[record]]
smiles_string = "CCCCCc1ccc(NC(=O)CC)c2c1C(=O)N([C@H](CS(C)(=O)=O)c1ccc(OC)c(OCC)c1)C2=O"
unit_of_measure = "%"
reading = 16.3

[[record]]
smiles_string = "CCCCCc1ccc(NC(C)=O)c2c1C(=O)N([C@H](CS(C)(=O)=O)c1ccc(OC)c(OCC)c1)C2=O"
unit_of_measure = "%"
reading = 0


----------
Target: UniProtKB Q07343
Sequence (Q07343 1-564 isoform Q07343-2): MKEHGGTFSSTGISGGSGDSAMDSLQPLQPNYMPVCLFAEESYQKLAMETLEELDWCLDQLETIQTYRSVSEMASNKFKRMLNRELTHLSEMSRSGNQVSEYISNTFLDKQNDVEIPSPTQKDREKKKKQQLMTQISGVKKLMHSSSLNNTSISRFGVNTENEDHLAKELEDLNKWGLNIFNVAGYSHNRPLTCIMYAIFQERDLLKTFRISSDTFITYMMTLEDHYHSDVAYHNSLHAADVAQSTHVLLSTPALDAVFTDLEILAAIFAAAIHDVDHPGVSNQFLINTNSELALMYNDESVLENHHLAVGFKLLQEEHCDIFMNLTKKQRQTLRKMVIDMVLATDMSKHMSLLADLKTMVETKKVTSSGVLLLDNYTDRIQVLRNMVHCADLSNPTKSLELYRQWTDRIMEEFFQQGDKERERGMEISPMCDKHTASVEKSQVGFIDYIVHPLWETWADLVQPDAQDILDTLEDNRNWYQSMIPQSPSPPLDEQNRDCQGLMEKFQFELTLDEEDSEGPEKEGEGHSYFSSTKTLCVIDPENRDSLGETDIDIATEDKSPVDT
metric: IC50

[[record]]
compound = "CCCCCc1ccc(NC(=O)CC)c2c1C(=O)N([C@H](CS(C)(=O)=O)c1ccc(OC)c(OCC)c1)C2=O"
reading = "100 to 200 nM"

[[record]]
compound = "CCCCC(O)c1ccc(NC(C)=O)c2c1C(=O)N([C@H](CS(C)(=O)=O)c1ccc(OC)c(OCC)c1)C2=O (mixture of isomers)"
reading = "< 100 nM"

[[record]]
compound = "[2H]c1c([2H])c(NC(C)=O)c2c(c1CCCCC)C(=O)N([C@H](CS(C)(=O)=O)c1ccc(OC)c(OCC)c1)C2=O"
reading = "< 100 nM"


----------
Molecular target: PDE2A (Homo sapiens, UniProt O00408)
Sequence (O00408 whole entry, species assumed): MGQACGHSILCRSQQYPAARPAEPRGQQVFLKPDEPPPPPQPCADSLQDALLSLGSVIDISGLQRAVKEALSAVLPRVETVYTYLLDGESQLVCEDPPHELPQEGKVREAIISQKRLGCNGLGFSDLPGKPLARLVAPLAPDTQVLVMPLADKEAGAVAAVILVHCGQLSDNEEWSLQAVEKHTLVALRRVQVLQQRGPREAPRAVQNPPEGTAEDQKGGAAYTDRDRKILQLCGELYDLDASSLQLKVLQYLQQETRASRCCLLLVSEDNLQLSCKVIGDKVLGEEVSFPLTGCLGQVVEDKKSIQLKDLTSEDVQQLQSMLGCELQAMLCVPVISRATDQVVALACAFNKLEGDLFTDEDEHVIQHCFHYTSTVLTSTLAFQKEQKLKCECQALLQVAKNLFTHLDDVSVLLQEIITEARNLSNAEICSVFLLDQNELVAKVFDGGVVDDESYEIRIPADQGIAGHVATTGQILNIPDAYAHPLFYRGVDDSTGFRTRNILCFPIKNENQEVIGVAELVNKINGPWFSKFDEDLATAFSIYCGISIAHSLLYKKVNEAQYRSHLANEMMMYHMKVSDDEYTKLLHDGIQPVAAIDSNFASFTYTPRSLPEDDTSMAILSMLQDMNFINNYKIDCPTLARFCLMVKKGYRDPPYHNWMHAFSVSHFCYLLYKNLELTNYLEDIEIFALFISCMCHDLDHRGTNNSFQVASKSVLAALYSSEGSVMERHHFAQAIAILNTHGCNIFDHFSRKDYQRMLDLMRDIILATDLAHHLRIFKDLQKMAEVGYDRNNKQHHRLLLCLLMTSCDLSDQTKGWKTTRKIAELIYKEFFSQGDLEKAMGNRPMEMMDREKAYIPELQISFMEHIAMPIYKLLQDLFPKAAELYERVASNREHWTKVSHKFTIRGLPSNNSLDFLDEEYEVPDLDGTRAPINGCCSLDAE
Experiment: Selective inhibitory activity assay, PDE2A
Type: biochemical
Settings: 10 μM; read-out: Inhibition rate (%) of PDE2A
Output satisfied for inhibition at 10 µM not less than 8%; output not satisfied otherwise.

[[record]]
compound = "CCCC#Cc1ccc(NC(C)=O)c2c1C(=O)N([C@H](CS(C)(=O)=O)c1ccc(OC)c(OCC)c1)C2=O"
assigned_class = "not satisfied"

[[record]]
compound = "CCCCCc1ccc(NC(=O)CCl)c2c1C(=O)N([C@H](CS(C)(=O)=O)c1ccc(OC)c(OCC)c1)C2=O"
assigned_class = "satisfied"

[[record]]
compound = "CCCCCc1ccc(NC(=O)CCCCl)c2c1C(=O)N([C@H](CS(C)(=O)=O)c1ccc(OC)c(OCC)c1)C2=O"
assigned_class = "satisfied"

[[record]]
compound = "CCCCCc1ccc(NC(=O)CC)c2c1C(=O)N([C@H](CS(C)(=O)=O)c1ccc(OC)c(OCC)c1)C2=O"
assigned_class = "satisfied"

[[record]]
compound = "CCCCCc1ccc(NC(=O)CF)c2c1C(=O)N([C@H](CS(C)(=O)=O)c1ccc(OC)c(OCC)c1)C2=O"
assigned_class = "not satisfied"

[[record]]
compound = "CCOc1cc([C@@H](CS(C)(=O)=O)N2C(=O)c3cccc(NC(C)=O)c3C2=O)ccc1OC [Example 0, Apremilast, reference compound]"
assigned_class = "not satisfied"

[[record]]
compound = "CCCCCc1ccc(NC(C)=O)c2c1C(=O)N([C@H](CS(C)(=O)=O)c1ccc(OC)c(OCC)c1)C2=O"
assigned_class = "satisfied"

[[record]]
compound = "C=CC(=O)Nc1ccc(CCCCC)c2c1C(=O)N([C@H](CS(C)(=O)=O)c1ccc(OC)c(OCC)c1)C2=O"
assigned_class = "satisfied"


----------
Target: PDE4C1 (Homo sapiens, UniProt Q08493)
Sequence (Q08493 whole entry): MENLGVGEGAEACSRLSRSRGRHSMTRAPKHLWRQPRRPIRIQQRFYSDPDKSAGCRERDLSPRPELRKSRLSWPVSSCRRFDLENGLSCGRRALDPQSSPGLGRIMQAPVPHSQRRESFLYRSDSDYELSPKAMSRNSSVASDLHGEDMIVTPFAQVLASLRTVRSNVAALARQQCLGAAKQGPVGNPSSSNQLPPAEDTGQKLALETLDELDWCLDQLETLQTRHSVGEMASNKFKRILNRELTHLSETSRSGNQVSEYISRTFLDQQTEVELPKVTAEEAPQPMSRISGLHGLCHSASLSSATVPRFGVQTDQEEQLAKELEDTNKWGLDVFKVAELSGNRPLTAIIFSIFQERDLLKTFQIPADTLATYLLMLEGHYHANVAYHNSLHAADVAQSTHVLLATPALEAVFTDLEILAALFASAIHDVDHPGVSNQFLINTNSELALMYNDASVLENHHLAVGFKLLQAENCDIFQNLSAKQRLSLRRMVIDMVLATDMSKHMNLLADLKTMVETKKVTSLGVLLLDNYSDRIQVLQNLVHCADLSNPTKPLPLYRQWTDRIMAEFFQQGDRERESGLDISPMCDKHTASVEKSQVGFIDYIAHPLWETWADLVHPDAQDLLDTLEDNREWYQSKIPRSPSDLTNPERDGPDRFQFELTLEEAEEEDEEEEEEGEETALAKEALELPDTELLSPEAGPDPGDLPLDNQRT
metric: IC50

[[record]]
molecule = "CCCCC(O)c1ccc(NC(C)=O)c2c1C(=O)N([C@H](CS(C)(=O)=O)c1ccc(OC)c(OCC)c1)C2=O (mixture of isomers)"
target_desc = "PDE4C1 (Homo sapiens, UniProt Q08493)"
reading = "< 200 nM"

[[record]]
molecule = "CCCCCc1ccc(NC(=O)CC)c2c1C(=O)N([C@H](CS(C)(=O)=O)c1ccc(OC)c(OCC)c1)C2=O"
target_desc = "PDE4C1 (Homo sapiens, UniProt Q08493)"
reading = "200 to 500 nM"

[[record]]
molecule = "CCCCCc1ccc(NC(=O)CCCCl)c2c1C(=O)N([C@H](CS(C)(=O)=O)c1ccc(OC)c(OCC)c1)C2=O"
target_desc = "PDE4C1 (Homo sapiens, UniProt Q08493)"
reading = "200 to 500 nM"

[[record]]
molecule = "[2H]c1c([2H])c(NC(C)=O)c2c(c1CCCCC)C(=O)N([C@H](CS(C)(=O)=O)c1ccc(OC)c(OCC)c1)C2=O"
target_desc = "PDE4C1 (Homo sapiens, UniProt Q08493)"
reading = "< 200 nM"

[[record]]
molecule = "CCCCC(=O)c1ccc(NC(C)=O)c2c1C(=O)N([C@H](CS(C)(=O)=O)c1ccc(OC)c(OCC)c1)C2=O"
target_desc = "PDE4C1 (Homo sapiens, UniProt Q08493)"
reading = "200 to 500 nM"

[[record]]
molecule = "[2H]C([2H])(CCCC)c1ccc(NC(C)=O)c2c1C(=O)N([C@H](CS(C)(=O)=O)c1ccc(OC)c(OCC)c1)C2=O"
target_desc = "PDE4C1 (Homo sapiens, UniProt Q08493)"
reading = "< 200 nM"

[[record]]
molecule = "CCCCCc1ccc(NC(C)=O)c2c1C(=O)N([C@H](CS(C)(=O)=O)c1ccc(OC)c(OCC)c1)C2=O"
target_desc = "PDE4C1 (Homo sapiens, UniProt Q08493)"
reading = "< 200 nM"


----------
Biological target: PDE5A1 (Homo sapiens, UniProt O76074)
Assay: Selective inhibitory activity assay, PDE5A1
Type: biochemical
Conditions: 10 μM; read-out: Inhibition rate (%) of PDE5A1
metric: inhibition at 10 µM (%)

[[record]]
smiles_string = "CCCCCc1ccc(NC(=O)CCCCl)c2c1C(=O)N([C@H](CS(C)(=O)=O)c1ccc(OC)c(OCC)c1)C2=O"
unit_of_measure = "%"
reading = 8.39

[[record]]
smiles_string = "CCCCCc1ccc(NC(=O)CF)c2c1C(=O)N([C@H](CS(C)(=O)=O)c1ccc(OC)c(OCC)c1)C2=O"
unit_of_measure = "%"
reading = 4.16

[[record]]
smiles_string = "CCCCCc1ccc(NC(=O)CC)c2c1C(=O)N([C@H](CS(C)(=O)=O)c1ccc(OC)c(OCC)c1)C2=O"
unit_of_measure = "%"
reading = 20.3

[[record]]
smiles_string = "CCCC#Cc1ccc(NC(C)=O)c2c1C(=O)N([C@H](CS(C)(=O)=O)c1ccc(OC)c(OCC)c1)C2=O"
unit_of_measure = "%"
reading = -2.87

[[record]]
smiles_string = "C=CC(=O)Nc1ccc(CCCCC)c2c1C(=O)N([C@H](CS(C)(=O)=O)c1ccc(OC)c(OCC)c1)C2=O"
unit_of_measure = "%"
reading = 13


Provenance of the data: patent US20240254082A1
